Known solubility (g/100 g solution) of a selection of compounds
Assay: xn = mol fraction of the nth substance listed, in the solute-free solvent
Details: 293.15 K; x2 = 0.6

Compound: O=C(CC(=O)c1ccccc1)c1ccccc1 + CCO + O
solubility (g/100 g solution): 1.13
--
Compound: O=c1[nH]cc(F)c(=O)[nH]1 + CO + C1CCOC1
solubility (g/100 g solution): 0.356
--
Compound: O=C(CC(=O)c1ccccc1)c1ccccc1 + CO + O
solubility (g/100 g solution): 0.643
--
Compound: CCCCN1CCCCC1C(=O)Nc1c(C)cccc1C.Cl.O (stereo unspecified) + CCO + O
solubility (g/100 g solution): 3.15
--
Compound: O=c1ccc2ccccc2o1 + CO + O
solubility (g/100 g solution): 9.8
--
Compound: CCOC(=O)C1=CC2(CC)CCCN3CCc4c(n1c1ccccc41)C32 (stereo unspecified) + CCO + O
solubility (g/100 g solution): 0.43
